Species on record: Rattus norvegicus
protocol: Tested for its arylhydroxamic acid N,O-Acyltransferase (AHAT) catalyzed transacetylation of aminoazobenzene with partially purified hepatic enzyme in rat
Assay type: functional
property.name: Rate (nmol/min/mg)

Answered cases to consult:
- compound.structure.string: "CC(=O)N(O)c1ccc(C)cc1"
  property.name: "Rate"
  measured.value: 1.1
- compound.structure.string: "CCCCc1ccc(N(O)C(C)=O)cc1"
  property.name: "Rate"
  measured.value: 4.7
- compound.structure.string: "CC(=O)N(O)c1ccc(-c2ccccc2)cc1"
  property.name: "Rate"
  measured.value: 5.8
- compound.structure.string: "CC(=O)N(O)c1ccc(C=C(C)C)cc1"
  property.name: "Rate"
  measured.value: 5.7
- compound.structure.string: "CCCc1ccc(N(O)C(C)=O)cc1"
  property.name: "Rate"
  measured.value: 3.1
- compound.structure.string: "CC(=O)N(O)c1ccc(C2CCCCC2)cc1"
  property.name: "Rate"
  measured.value: 4.7

I = CCCCCc1ccc(N(O)C(C)=O)cc1
II = C=Cc1ccc(N(O)C(C)=O)cc1
III = CC(=O)N(O)c1ccccc1
IV = CCc1ccc(N(O)C(C)=O)cc1
Request: Sort (4 compounds) by Rate: min first. Write the labels out in the order the request specifies.
Result: III, IV, II, I
